Biological target: biotinylated multidomain FZD3 (C-terminally truncated, in detergent) (human) (UniProt Q9NPG1)
Assay: BLI; Octet Red 96e; biotinylated multidomain FZD3 or FZD6 in detergent immobilised, nanobody or DEP in solution; 10 mM HEPES pH 7.5, 150 mM NaCl, 0.02% Tween 20, 0.005% GDN; 1:1 binding model
readoutLabel: pKd
Note: pKd values are expressed as the negative base-10 logarithm of concentration in M.

Task: Would you kindly share the measured pKd for DVL2 DEP domain (domain or fragment) PESGLEVRDRMWLKITIPNAFLGSDVVDWLYHHVEGFPERREARKYASGLLKAGLIRHTVNKITFSEQCYYVFGD ?
Output: 6.34
